Recorded measurements of Neutralization IC50 (RSV subtype A), one per entry
- EXPERIMENTAL_TARGET: RSV fusion glycoprotein (RSV F) on RSV-A2 virus (respiratory syncytial virus, UniProt P03420 26-574)
- ASSAY_SUMMARY: cell-based or functional assay

In the examples that follow, each entry is paired with its recorded Neutralization IC50 (RSV subtype A).
Reported Neutralization IC50 (RSV subtype A) of ADI-41403 (antibody, V domains shown, IgG1) VH: EVQLVESGGGLVKPGGSLRLSCAASGFTFGTYTMNWVRQAPGKGLEWVSSISSSSSHIYYADSVKGRFTISRDNARKALYLQMNSLRPEDTAVYFCARFLGDYGGDGNTYYYYYGMDVWGQGTTVTVSS VL: EIVMTQSPLSLPVTPGEPASISCRSSQSLLHSNGKNYLDWYLQKPGQSPQLLIHLGSNRASGVPDRFSGSGSGTDFTLQISRVEAEDVGVYYCMQALQTPTFGGGTKLEIK : > 25 µg/mL

Reported Neutralization IC50 (RSV subtype A) of ADI-41353 (antibody, V domains shown) VH: EVQLVESGVEVKKPGESLKISCRGSGYSFHNYWIAWVRQKPGKGLEYMGTIYVDDSDTIYSPSFQGEVTISADKSINTAYLQWNSLKASDTANYYCARQMDFYFDVWGRGTLVTVSS VL: SYELTQPPSVSVSPGQTARITCSGDPLPRESAYWYQQKPGQAPVVVIFNDIERPLGIPERFSGSRSGTTVTLTISGAQAEDEADYYCQSADSRKTFVFGSGTKLTVL : > 25 µg/mL

Reported Neutralization IC50 (RSV subtype A) of ADI-41429 (antibody, V domains shown, IgG1; also called Ab 714) VH: QVQLVQSGAEVKKPGSSVKVSCKASGGTFSSYAISWVRQAPGQGLEWMGGIIPIFGTVNYAQKFPGRVTITADESTSTAYMELSSLRSEDTAIYYCARDSPSYTGSLLFSQYYYGMDVWGQGTTVTVSS VL: QPVLTQPASVSGSPGQSITISCTGTSSDVGGYDYVSWYQHHPGKAPKLMIYEVSNRPSGVSNRFSGSKSGNTASLTISGLQAEDEADYYCSSFTTSSPRVFGTGTKLTVL : > 25 µg/mL

Continuing:
Reported Neutralization IC50 (RSV subtype A) of ADI-41453 (antibody, V domains shown, IgG1; also called Ab 737) VH: QVQLVQSGAEVRKPGASVKVSCKASGYTFSIYDMNWVRQAPGQGLEWMGWMNPNSGNTGYAQKFQGRVTMTGDTSISTAYMELSSLTSEDTAVYYCAVMYGDYPGYWGQGSLVTVSS VL: SYELTQPLSVSVALGQTARITCGGNNIGSKSVHWYQQKPGQAPVLVIYRDAKRPSGIPERFSGSNSGNTATLTISGAQAGDEADYYCQVWDSNAWIFGGRTKLTVL : > 25 µg/mL

Reported Neutralization IC50 (RSV subtype A) of ADI-41451 (antibody, V domains shown, IgG1; also called Ab 735) VH: EVQLVESGGGLVQPGGSLRLSCAAAGFTFNNYEMHWVRQAPGKGLEWVSCVTSSGTATYYADSVKGRFTVSRDNAKKSLQLQMNSLRAEDTAVYYCARELYLGEDYYYGLDVWGQGTTVTVSS VL: SYELTQPPSVSVSPGQTASISCSGDKLRNKHTCWYQHKSGQSPVLLIYQDNRRPSGIPDRLSGSKSGTTATLTISWTQAMDEAEYYCQAWDSNSAVIFGGGTKLTVL : 0.84 µg/mL

The measurements presented in this section are drawn from patent US20260258115A1.
